Origin of the recorded values: ChEMBL document CHEMBL1156831

This listing pairs compounds with measured Ratio.
SUBJECT OF TEST: Matrix metalloproteinase-14 (Homo sapiens) (UniProt P50281)
ASSAY COMMENT: Ratio Kcat to […] for MMP14
Numbered stars: 1 amine (or outer) side, 2 acyl side, 3 side chain; on linkers, the order of the positions; unused ones are H or OH. Square brackets hold non-standard residues; d marks the D form. Peptide text beside a SMILES is read from it. * marks the point of attachment. ξ: configuration not given here. Doxorubicin(3'-N) = COc1cccc2c1C(=O)c1c(O)c3c(c(O)c1C2=O)C[C@@](O)(C(=O)CO)C[C@@H]3O[C@H]1C[C@H](N*)[C@H](O)[C@H](C)O1; Cit = NC(=O)NCCC[C@H](N)C(=O)O; Suc = O=C(CCC(=O)[*:2])[*:1]; X5 = O=C(CS(=O)(=O)O)*; ξP = O=C(O)C1CCCN1; Bn = c1ccc(C*)cc1
Give the value as a plain number.

// fetch Matrix metalloproteinase-14 (Homo sapiens) (UniProt P50281) Ratio for COc1cccc2c1C(=O)c1c(O)c3c(c(O)c1C2=O)C[C@@](O)(C(=O)CO)C[C@@H]3O[C@H]1C[C@H](NC(=O)[C@H](CC(C)C)NC(=O)[C@H](Cc2ccc(O)cc2)NC(=O)[C@H](COCc2ccccc2)NC(=O)CNC(=O)[C@H](CC(C)C)NC(=O)C2CCCN2C(=O)CCC(=O)O)[C@H](O)[C@H](C)O1 (some centres undefined) (Suc-[ξP]LGS(Bn)YL-{Doxorubicin(3'-N)})
89

// fetch Matrix metalloproteinase-14 (Homo sapiens) (UniProt P50281) Ratio for COc1cccc2c1C(=O)c1c(O)c3c(c(O)c1C2=O)C[C@@](O)(C(=O)CO)C[C@@H]3O[C@H]1C[C@H](NC(=O)[C@H](CC(C)C)NC(=O)[C@H](Cc2ccc(O)cc2)NC(=O)[C@H](COCc2ccccc2)NC(=O)CNC(=O)[C@H](CCCNC(N)=O)NC(=O)[C@@H]2CCCN2C(=O)CS(=O)(=O)O)[C@H](O)[C@H](C)O1 (X5-P[Cit]GS(Bn)YL-{Doxorubicin(3'-N)})
56

// fetch Matrix metalloproteinase-14 (Homo sapiens) (UniProt P50281) Ratio for COc1cccc2c1C(=O)c1c(O)c3c(c(O)c1C2=O)C[C@@](O)(C(=O)CO)C[C@@H]3O[C@H]1C[C@H](NC(=O)[C@H](CC(C)C)NC(=O)[C@H](Cc2ccc(O)cc2)NC(=O)[C@H](COCc2ccccc2)NC(=O)CNC(=O)[C@H](CC(C)C)NC(=O)[C@@H]2CCCN2C(C)=O)[C@H](O)[C@H](C)O1 (Ac-PLGS(Bn)YL-{Doxorubicin(3'-N)})
25

---

SUBJECT OF TEST: UniProtKB P08473
Sequence (P08473 whole entry): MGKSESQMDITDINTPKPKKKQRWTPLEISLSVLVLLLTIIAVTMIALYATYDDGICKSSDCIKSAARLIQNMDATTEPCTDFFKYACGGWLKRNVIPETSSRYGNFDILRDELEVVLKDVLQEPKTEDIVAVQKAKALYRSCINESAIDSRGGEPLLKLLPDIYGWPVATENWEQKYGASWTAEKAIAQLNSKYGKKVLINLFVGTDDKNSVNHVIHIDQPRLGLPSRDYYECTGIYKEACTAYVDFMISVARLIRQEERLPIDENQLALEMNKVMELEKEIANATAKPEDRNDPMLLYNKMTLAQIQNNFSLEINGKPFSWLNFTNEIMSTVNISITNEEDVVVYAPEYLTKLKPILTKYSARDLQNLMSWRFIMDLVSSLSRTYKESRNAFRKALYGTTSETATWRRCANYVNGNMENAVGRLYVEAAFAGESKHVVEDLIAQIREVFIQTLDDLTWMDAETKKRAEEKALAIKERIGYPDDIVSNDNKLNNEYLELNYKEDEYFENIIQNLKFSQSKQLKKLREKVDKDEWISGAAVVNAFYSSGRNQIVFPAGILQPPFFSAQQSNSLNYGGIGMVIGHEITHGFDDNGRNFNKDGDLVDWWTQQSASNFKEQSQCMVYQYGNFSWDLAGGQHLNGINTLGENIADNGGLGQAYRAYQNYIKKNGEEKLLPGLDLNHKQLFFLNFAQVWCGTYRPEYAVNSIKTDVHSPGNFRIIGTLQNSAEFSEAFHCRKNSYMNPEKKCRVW
ASSAY COMMENT: Ratio Kcat to […] for neprilysin
Peptide text beside a SMILES is read from it. * marks the point of attachment. Doxorubicin(3'-N) = COc1cccc2c1C(=O)c1c(O)c3c(c(O)c1C2=O)C[C@@](O)(C(=O)CO)C[C@@H]3O[C@H]1C[C@H](N*)[C@H](O)[C@H](C)O1
MEASUREMENT NAME: Ratio
Give the value as a plain number.

MOLECULE	Ratio
COc1cccc2c1C(=O)c1c(O)c3c(c(O)c1C2=O)C[C@@](O)(C(=O)CO)C[C@@H]3O[C@H]1C[C@H](NC(=O)[C@H](CC(C)C)NC(=O)[C@H](CC(C)C)NC(=O)CNC(=O)[C@H](CC(C)C)NC(=O)[C@@H]2CCCN2C(C)=O)[C@H](O)[C@H](C)O1 (Ac-PLGLL-{Doxorubicin(3'-N)})	22

Continue with the molecule presented below.
// fetch UniProtKB P08473 Ratio for COc1cccc2c1C(=O)c1c(O)c3c(c(O)c1C2=O)C[C@@](O)(C(=O)CO)C[C@@H]3O[C@H]1C[C@H](NC(=O)[C@H](CC(C)C)NC(=O)[C@H](CC(C)C)NC(=O)CNC(=O)[C@H](CC(C)C)NC(C)=O)[C@H](O)[C@H](C)O1 (Ac-LGLL-{Doxorubicin(3'-N)})
5
